- Tested on: CP262
- experimentalProtocol: qHTS profiling for inhibitors of Plasmodium falciparum proliferation (AID 504749); also: nearly all actives have a fitted effect of over 60% in size
- experimentalSetup: P. falciparum in erythrocytes, SYBR Green DNA, 72 h; series mostly up to 28.7 µM
Records with an inconclusive call do not appear. Active and inactive are the calls of the source. Calls follow the shape of the dose curve; as a rule, active = well fitted inhibition curve with a large enough effect; inconclusive = small, poorly fitted or top-dose-only effect; inactive = flat fitted curve, though single readings scatter.
Possible outcomes: active, inactive

{"columns": ["compound", "testedTarget", "classification"],
 "data": [
  ["OCCN1CCN(CC/C=C2/c3ccccc3Sc3ccc(C(F)(F)F)cc32)CC1", "CP262", "active"],
  ["CC(=O)[C@@]1(O)CC[C@H]2[C@@H]3CCC4=CC(=O)CC[C@]4(C)[C@H]3CC[C@@]21C", "CP262", "inactive"],
  ["CCNC(=O)N1CCN(CCCC(c2ccc(F)cc2)c2ccc(F)cc2)CC1", "CP262", "active"],
  ["CCCCNc1c(C(=O)OCC)c(C)nc2c1cnn2CC", "CP262", "inactive"],
  ["Cc1nnc(SCC2=C(C(=O)O)N3C(=O)[C@@H](NC(=O)Cn4cnnn4)[C@H]3SC2)s1", "CP262", "inactive"],
  ["CCn1ccnc1CC1COc2ccccc2O1 (stereo unspecified)", "CP262", "inactive"],
  ["O=C(CCNNC(=O)c1ccncc1)NCc1ccccc1", "CP262", "inactive"],
  ["CCn1cc(C(=O)O)c(=O)c2cc3c(cc21)OCO3", "CP262", "inactive"],
  ["CC(=O)OCC1=C(C(=O)O)N2C(=O)[C@@H](NC(=O)Cc3cccs3)[C@H]2SC1", "CP262", "inactive"],
  ["Nc1ncn([C@@H]2O[C@H](CO)[C@@H](O)[C@H]2O)c(=O)n1", "CP262", "inactive"],
  ["NCCCNCCSP(=O)(O)O", "CP262", "inactive"],
  ["Cc1nc2c([nH]1)c(=O)n(C)c(=O)n2Cc1ccco1", "CP262", "inactive"],
  ["C#CCN(C)CCCOc1ccc(Cl)cc1Cl", "CP262", "inactive"],
  ["NC(N)=N/N=C/c1c(Cl)cccc1Cl", "CP262", "active"],
  ["COC(=O)C1=C(C)NC(C)=C(C(=O)OC(C)(C)CN(C)CCC(c2ccccc2)c2ccccc2)C1c1cccc([N+](=O)[O-])c1 (stereo unspecified)", "CP262", "active"],
  ["COc1cc2c(cc1OC)-c1cc(=Nc3c(C)cc(C)cc3C)n(C)c(=O)n1CC2", "CP262", "active"],
  ["Brc1c(NC2=NCCN2)ccc2nccnc12", "CP262", "inactive"],
  ["O=C1NCN(c2ccccc2)C12CCN(CCCC(c1ccc(F)cc1)c1ccc(F)cc1)CC2", "CP262", "inactive"],
  ["NC(=O)N1c2ccccc2C=Cc2ccccc21", "CP262", "inactive"],
  ["Nc1c2c(nc3ccccc13)CCCC2O (stereo unspecified)", "CP262", "inactive"],
  ["Cc1ccc(=O)n(-c2ccccc2)c1", "CP262", "inactive"],
  ["CCO/C([O-])=N/c1c[n+](N2CCOCC2)no1", "CP262", "inactive"],
  ["NC(N)=NC(=O)Cc1c(Cl)cccc1Cl", "CP262", "active"],
  ["O=C(CCCN1CCC(O)(c2cccc(C(F)(F)F)c2)CC1)c1ccc(F)cc1", "CP262", "active"],
  ["CC(C)COCC(CN(Cc1ccccc1)c1ccccc1)N1CCCC1 (stereo unspecified)", "CP262", "inactive"],
  ["CCCCCCCC/C=C\\CCCCCCCC(=O)NCc1ccc(O)c(OC)c1", "CP262", "inactive"],
  ["CCCN(CCC)CCc1cccc2c1CC(=O)N2", "CP262", "inactive"],
  ["NC(Cc1ccc(Cl)cc1)C(=O)O (stereo unspecified)", "CP262", "inactive"],
  ["COc1ccc([C@@H]2Sc3ccccc3N(CCN(C)C)C(=O)[C@@H]2OC(C)=O)cc1", "CP262", "inactive"],
  ["COc1ccc(CN(CCN(C)C)c2ccccn2)cc1", "CP262", "inactive"],
  ["NC(=O)c1cn(Cc2c(F)cccc2F)nn1", "CP262", "inactive"],
  ["CCCCOCCOCCOCc1cc2c(cc1CCC)OCO2", "CP262", "inactive"],
  ["CNC1(C)C2CCC(C2)C1(C)C (stereo unspecified)", "CP262", "inactive"],
  ["CCN(CC)CC(=O)Nc1c(C)cccc1C", "CP262", "inactive"],
  ["CC(=O)[C@]1(O)Cc2c(O)c3c(c(O)c2[C@@H](O[C@H]2C[C@H](N)[C@H](O)[C@H](C)O2)C1)C(=O)c1ccccc1C3=O", "CP262", "active"],
  ["CN(C)CCCN1c2ccccc2Sc2ccccc21", "CP262", "inactive"],
  ["CCCCNc1ccc(C(=O)OCCN(C)C)cc1", "CP262", "inactive"],
  ["CCCCCN(CCCCC)C(=O)C(CCC(=O)O)NC(=O)c1ccc(Cl)c(Cl)c1 (stereo unspecified)", "CP262", "inactive"],
  ["O=C(O)CCCCCCCC(=O)O", "CP262", "inactive"],
  ["FC(F)(F)c1ccccc1-n1ccnc1", "CP262", "inactive"],
  ["c1cc(CN2CCCCC2)cc(OCCCNc2nc3ccccc3s2)c1", "CP262", "inactive"],
  ["O=C1CC2(CCCC2)CC(=O)N1CCCCN1CCN(c2ncccn2)CC1", "CP262", "inactive"],
  ["CN(C)C(=O)Oc1cccc([N+](C)(C)C)c1", "CP262", "inactive"],
  ["CCN1CCC[C@H]1CNC(=O)c1c(O)c(Cl)cc(Cl)c1OC", "CP262", "inactive"],
  ["CNCCC(Oc1ccccc1OC)c1ccccc1 (stereo unspecified)", "CP262", "inactive"],
  ["C[N+](C)(C)CCCCCCCCCC[N+](C)(C)C", "CP262", "active"]
]}
